# Experiment summary: Tissue distribution in male rats after single oral dose of 75 mg/kg
# Format: in vivo, male Sprague Dawley rats
# Assay context: male, Sprague Dawley, rat, all tissues (liver, lung, pancreas, brain); rats; 75 mg/kg oral; 48 hours after administration; read-out: concentrations in all tissues
Endpoint name: concentration at 48 h

In [3]: df
Out[3]:
                                   molecule          endpoint_name  experimental_result
0  Cc1ccc(NC(=O)C2(c3ccc4c(c3)OC(F)(F)O4)CC2)nc1-c1cccc(C(=O)O)c1 [Compound 1]  concentration at 48 h         < 1000 ng/mL
